# Tested on: IL-12 mRNA
# procedureText: IL-12 mRNA in LPS-activated primary murine macrophages
# Type: cell-based, mouse
# conditionSet: 75 nM, +IFN, LPS; average of 3 treatments
# Protocol: To investigate the role of miRNAs in the immune response, oligomeric compounds of the present invention targeting miRNAs were tested for their effects upon lipopolysaccharide (LPS)-activated primary murine macrophages. Macrophages participate in the immune response, for example, in the recognition and phagocytosis of microorganisms, including bacteria. […]
In the oligonucleotide strings, read from the 5' end, every base follows the letter of its sugar. An asterisk marks phosphorothioate; unmarked linkages are phosphodiester. Other units and linkages are bracketed, terminal groups are in braces. A string of capitals states the bases alone. e = 2'-O-(2-methoxyethyl) (MOE); [5mC] = 5-methylcytosine; d = 2'-deoxy (DNA)
Decide by IL-12 mRNA expression, % UTC: equal to or exceeding 60 % UTC means Fulfilled, less means Not fulfilled.

-- ask // inclusive: IL-12 mRNA expression, % UTC at least 60 % UTC? input: 129690 (antisense TTAGAATACGTCGCGTTATG; sugars from the 5' end e5 d10 e5, all phosphorothioate, methylation of C not given here) [compound 129690]
-- reply Fulfilled

-- ask Would you kindly repeat that for 327921 (antisense e[5mC]*eT*eT*e[5mC]*e[5mC]*eA*eG*eT*e[5mC]*eG*eG*eG*eG*eA*eT*eG*eT*eT*eT*eA*e[5mC]*eA) [compound 327921] ?
-- reply Not fulfilled

-- ask One more substance: 229927 (antisense e[5mC]*e[5mC]*eA*e[5mC]*eA*dT*dT*dG*dA*dG*dT*dT*dT*d[5mC]*dT*eT*eT*eA*eA*eG) [compound 229927]
-- reply Not fulfilled

-- ask Moving on to 342683 (antisense CCTTCCCTGAAGGTTCCTCCTT; scrambled control, further chemistry not given here) [compound 342683]
-- reply Fulfilled

-- ask Could you do the same for 327941 (antisense eA*eA*e[5mC]*e[5mC]*e[5mC]*eA*e[5mC]*e[5mC]*eG*eA*e[5mC]*eA*eG*e[5mC]*eA*eA*eT*eG*eA*eA*eT*eG*eT*eT) [compound 327941] , please?
-- reply Not fulfilled
